# target desc: unphosphorylated-BTK kinase domain (UP-BTK), GST-tagged human BTK (389-659aa) (Homo sapiens (Human), UniProt Q06187)
# Sequence (Q06187 389-659): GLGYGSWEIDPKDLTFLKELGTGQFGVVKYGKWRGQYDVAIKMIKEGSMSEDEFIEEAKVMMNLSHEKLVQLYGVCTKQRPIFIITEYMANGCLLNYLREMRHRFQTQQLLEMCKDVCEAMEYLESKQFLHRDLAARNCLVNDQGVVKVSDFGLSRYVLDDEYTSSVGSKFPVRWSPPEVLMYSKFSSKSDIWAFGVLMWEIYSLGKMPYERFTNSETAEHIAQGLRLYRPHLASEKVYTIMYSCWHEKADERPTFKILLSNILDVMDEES
# method notes: BTK Kinase Lanthascreen Binding Assay
# run parameters: Lanthascreen binding, 60 minutes incubation; pIC50 = negative log of the IC50 in molar
attribute measured: BTK_I_binding pIC50

{"columns": ["compound", "BTK_I_binding pIC50"],
 "data": [
  ["C=CC(=O)N[C@H]1CCC[C@H]1NC(=O)c1sc2nccc3c2c1NC(=O)N3c1ccc(Oc2cccnc2C)cc1", 7.93],
  ["Cc1cc(Oc2ccccc2)ccc1N1C(=O)Nc2c(C(=O)N3CC[C@@H](NC(=O)/C(C#N)=C/C4CC4)C3)sc3nccc1c23", 6.09],
  ["CC(=O)N[C@H]1CCCC[C@H]1NC(=O)c1sc2nccc3c2c1NC(=O)N3c1ccc(Oc2ccccc2)nc1C (single isomer, unassigned)", 6.26],
  ["C=CC(=O)N[C@@H]1CCC[C@H]1NC(=O)c1sc2nccc3c2c1NC(=O)N3c1ncc(Oc2ccccc2)cn1", 7.58],
  ["Cc1cc(Oc2ccccc2)ncc1N1C(=O)Nc2c(C(=O)N[C@@H]3CC[C@H](N)C3)sc3nccc1c23 (single isomer, unassigned)", 6.61],
  ["C=CC(=O)N[C@@H]1CCC[C@H]1NC(=O)c1sc2nccc3c2c1NC(=O)N3c1ccnc(C(C)C)c1", 6.42]
]}

----------
# target desc: unphosphorylated-BTK kinase domain (UP-BTK), GST-tagged human BTK (389-659aa) (Homo sapiens (Human), UniProt Q06187)
# method notes: BTK Kinase Lanthascreen Binding Assay
# run parameters: compound, 50 nM Tracer 236, 2 nM anti-GST antibody, 60 minutes; pIC50 = negative log of the IC50 in molar
attribute measured: BTK_I_binding pIC50
Response field accepts a number only; no unit should be typed.

Solved cases (2 shown):
{"columns": ["molecule", "BTK_I_binding pIC50"],
 "data": [
  ["Cc1cc(OC(C)C)ccc1N1C(=O)Nc2c(C(=O)N[C@H]3CC[C@@H](NC(=O)/C=C/CN(C)C)C3)sc3nccc1c23", 6.44],
  ["Cc1cc(Oc2ccccc2)ccc1N1C(=O)Nc2c(C(=O)N[C@H]3CC[C@@H](O)CC3)sc3nccc1c23 [Example 16]", 7.14]
]}

query: Find the recorded BTK_I_binding pIC50 belonging to Cc1cc(Oc2ccccc2)ccc1N1C(=O)Nc2c(C(=O)N[C@H]3CC[C@@H](O)CC3)sc3nccc1c23 (single isomer, unassigned) [Example 83] and report it.
result: 7.60

----------
# target desc: unphosphorylated-BTK kinase domain (UP-BTK), GST-tagged human BTK (389-659aa) (Homo sapiens (Human))
# method notes: BTK Kinase Lanthascreen Binding Assay
# run parameters: read-out: BTK_I_binding pIC50 (converted)
attribute measured: IC50 (µM)

1 = C=CC(=O)N[C@H]1CCC[C@H]1NC(=O)c1sc2nccc3c2c1NC(=O)N3c1ccc(Oc2ccccn2)nc1C
2 = N[C@@H]1CC[C@@H](NC(=O)c2sc3nccc4c3c2NC(=O)N4c2ccc(Oc3ccccc3)cc2)C1 (racemic)
query: Of 1 and 2 , which shows the smaller IC50 value? Selection: enter the item's label.
result: 1

----------
# target desc: unphosphorylated-BTK kinase domain (UP-BTK), GST-tagged human BTK (389-659aa) (Homo sapiens (Human), UniProt Q06187)
# method notes: BTK Kinase Lanthascreen Binding Assay
# run parameters: Lanthascreen binding, 60 minutes incubation; pIC50 = negative log of the IC50 in molar
attribute measured: BTK_I_binding pIC50

{"columns": ["compound", "BTK_I_binding pIC50"],
 "data": [
  ["C=CC(=O)N[C@H]1CCC[C@H]1NC(=O)c1sc2nccc3c2c1NC(=O)N3c1ccc(Oc2cccnn2)cc1C [Example 305]", 7.84],
  ["C=CC(=O)N[C@H]1CCC[C@H]1NC(=O)c1sc2nccc3c2c1NC(=O)N3c1ccc(Oc2cccnn2)cn1 [Example 476]", 6.20],
  ["C=CC(=O)N[C@H]1CCCC[C@H]1NC(=O)c1sc2nccc3c2c1NC(=O)N3c1ccc(Oc2ccccc2)cn1 [Example 291]", 8.60],
  ["C=CC(=O)N[C@@H]1CCC[C@H]1NC(=O)c1sc2nccc3c2c1NC(=O)N3c1ccnc(C2CCC2)c1 [Example 379]", 6.80],
  ["C=CC(=O)N[C@H]1CCC[C@H]1NC(=O)c1sc2nccc3c2c1NC(=O)N3c1ccc(Oc2ncccn2)nc1C [Example 468]", 6.52],
  ["Cc1cc(Oc2ccccc2)ccc1N1C(=O)Nc2c(C(=O)N[C@@H]3CCCC[C@H]3NC(=O)CN(C)C)sc3nccc1c23 (single isomer, unassigned) [Example 447]", 6.67],
  ["CCC(=O)N[C@@H]1CC[C@H](NC(=O)c2sc3nccc4c3c2NC(=O)N4c2cnc(Oc3ccccc3)cc2C)C1 (single isomer, unassigned) [Example 390]", 8.04],
  ["CCC(=O)N[C@H]1CCN(C(=O)c2sc3nccc4c3c2NC(=O)N4c2ccc(Oc3ccccc3)cc2C)C1 [Example 418]", 5.80],
  ["C=CC(=O)N[C@@H]1CCC[C@H]1NC(=O)c1sc2nccc3c2c1NC(=O)N3c1cccc(-c2ccccn2)c1 [Example 327]", 6.98],
  ["CCC(=O)N[C@H]1CCCC[C@H]1NC(=O)c1sc2nccc3c2c1NC(=O)N3c1ccc(Oc2ccccc2)nc1C (single isomer, unassigned) [Example 343]", 6.11],
  ["Cc1cc(OC2CCCC2)ncc1N1C(=O)Nc2c(C(=O)N[C@@H]3CC[C@H](N)C3)sc3nccc1c23 (single isomer, unassigned) [Example 394]", 6.70],
  ["Cc1cc(OC(C)C)ccc1N1C(=O)Nc2c(C(=O)N[C@@H]3CCC[C@@H]3N)sc3nccc1c23 [Example 453]", 6.32],
  ["C=CC(=O)N[C@@H]1CCCC[C@H]1NC(=O)c1sc2nccc3c2c1NC(=O)N3c1cnc(Oc2ccccc2)nc1 [Example 338]", 6.39],
  ["C=CC(=O)N[C@H]1CC[C@@H](NC(=O)c2sc3nccc4c3c2NC(=O)N4c2cnc(Oc3ccccc3)cc2C)C1 (single isomer, unassigned) [Example 359]", 8.05],
  ["CCC(=O)N[C@H]1CC[C@H](NC(=O)c2sc3nccc4c3c2NC(=O)N4c2cnc(Oc3ccccc3)cc2C)C1 (single isomer, unassigned) [Example 399]", 6.51],
  ["Cc1cc(Oc2ccccc2)ncc1N1C(=O)Nc2c(C(=O)N[C@H]3CC[C@@H](N)C3)sc3nccc1c23 (single isomer, unassigned) [Example 431]", 6.68],
  ["C=CC(=O)N[C@H]1CCC[C@H]1NC(=O)c1sc2nccc3c2c1NC(=O)N3c1ccc(Oc2cccc(C)n2)cc1C [Example 368]", 8.13],
  ["CCC(=O)N[C@H]1CCC[C@H]1NC(=O)c1sc2nccc3c2c1NC(=O)N3c1ccc(Oc2ccccc2)cc1 [Example 398]", 6.56],
  ["C=CC(=O)N[C@H]1CCC[C@H]1NC(=O)c1sc2nccc3c2c1NC(=O)N3c1cnc(Oc2ccc(C)nc2)cc1C [Example 487]", 6.87],
  ["C=CC(=O)N[C@H]1CCC[C@H]1NC(=O)c1sc2nccc3c2c1NC(=O)N3c1cnc(Oc2cccnc2C)cc1C [Example 489]", 7.03],
  ["CC(=O)N[C@H]1CCCC[C@H]1NC(=O)c1sc2nccc3c2c1NC(=O)N3c1cnc(Oc2ccccc2)cc1C (single isomer, unassigned) [Example 377]", 6.83],
  ["Cc1cc(Oc2ccccc2)ccc1N1C(=O)Nc2c(C(=O)N[C@H]3CCC[C@H]3N)sc3nccc1c23 (single isomer, unassigned) [Example 452]", 6.38],
  ["CCC(=O)N[C@H]1CCC[C@@H](NC(=O)c2sc3nccc4c3c2NC(=O)N4c2cnc(Oc3ccccc3)cc2C)C1 (single isomer, unassigned) [Example 385]", 7.98],
  ["C=CC(=O)N[C@H]1CCC[C@H]1NC(=O)c1sc2nccc3c2c1NC(=O)N3c1ncc(Oc2ccccc2)cn1 [Example 296]", 8.39],
  ["C=CC(=O)N[C@H]1CCC[C@H]1NC(=O)c1sc2nccc3c2c1NC(=O)N3c1ccc(O[C@H]2CCOC2)cc1C [Example 383]", 7.45]
]}

----------
# target desc: unphosphorylated-BTK kinase domain (UP-BTK), GST-tagged human BTK (389-659aa) (Homo sapiens (Human), UniProt Q06187)
# method notes: BTK Kinase Lanthascreen Binding Assay
# run parameters: compound, 50 nM Tracer 236, 2 nM anti-GST antibody, 60 minutes; pIC50 = negative log of the IC50 in molar
attribute measured: BTK_I_binding pIC50

{"columns": ["molecule", "endpoint value"],
 "data": [
  ["Cc1cc(Oc2ccccc2)ccc1N1C(=O)Nc2c(C(=O)N[C@H]3CCC[C@H](NC(=O)CN(C)C)C3)sc3nccc1c23 (single isomer, unassigned) [Example 252]", 6.63],
  ["Cc1cc(Oc2ccccc2)ccc1N1C(=O)Nc2c(C(=O)N[C@H]3CC[C@@H](O)C3)sc3nccc1c23 [Example 74]", 7.07],
  ["N[C@H]1CC[C@@H](NC(=O)c2sc3nccc4c3c2NC(=O)N4c2ccc(Oc3ccccc3)cc2)CC1 [Example 145]", 6.69],
  ["CC(=O)N[C@H]1CCCC[C@@H]1NC(=O)c1sc2nccc3c2c1NC(=O)N3c1ccc(Oc2ccccc2)cc1C [Example 55]", 5.88],
  ["CCC(=O)N[C@@H]1CCCC[C@@H]1NC(=O)c1sc2nccc3c2c1NC(=O)N3c1ccc(Oc2ccccc2)cc1C [Example 42]", 6.24],
  ["N[C@H]1CC[C@H](NC(=O)c2sc3nccc4c3c2NC(=O)N4c2ccc(Oc3ccccc3)cc2)CC1 [Example 146]", 6.66],
  ["C=CC(=O)N[C@@H]1CC[C@H](NC(=O)c2sc3nccc4c3c2NC(=O)N4c2ccc(Oc3ccccc3)cc2C)C1 [Example 68]", 7.78],
  ["Cc1cc(Oc2ccccc2)ccc1N1C(=O)Nc2c(C(=O)N[C@H]3CC[C@@H](NC(=O)/C=C/CN(C)C)CC3)sc3nccc1c23 [Example 77]", 6.61],
  ["C=CC(=O)N[C@@H]1CCC[C@H]1NC(=O)c1sc2nccc3c2c1NC(=O)N3c1cnc(Oc2ccccc2)nc1C (single isomer, unassigned) [Example 219]", 7.94],
  ["Cc1cc(Oc2ccccc2)ccc1N1C(=O)Nc2c(C(=O)N[C@@H]3CC[C@@H](N)C3)sc3nccc1c23 [Example 236]", 7.00],
  ["CNC1CCCCC1NC(=O)c1sc2nccc3c2c1NC(=O)N3c1ccc(Oc2ccccc2)cc1C (centres unmarked) [Example 31]", 6.66],
  ["C=CC(=O)N[C@H]1CCC[C@H]1NC(=O)c1sc2nccc3c2c1NC(=O)N3c1ccc(Oc2ncccn2)cc1C [Example 224]", 7.46],
  ["N[C@H]1CCC[C@H]1NC(=O)c1sc2nccc3c2c1NC(=O)N3c1cccc(-c2ccccc2)c1 [Example 249]", 6.90],
  ["Cc1cc(Oc2ccccc2)ccc1N1C(=O)Nc2c(C(=O)N[C@H]3CCC[C@H]3O)sc3nccc1c23 [Example 39]", 6.51],
  ["Cc1cc(Oc2ccccc2)ccc1N1C(=O)Nc2c(C(=O)N[C@@H]3CCCC[C@@H]3N)sc3nccc1c23 (single isomer, unassigned) [Example 5]", 7.69],
  ["CC(=O)N[C@H]1CC[C@@H](NC(=O)c2sc3nccc4c3c2NC(=O)N4c2ccc(Oc3ccccc3)cc2C)C1 (single isomer, unassigned) [Example 244]", 6.66],
  ["Cc1cc(Oc2ccccc2)ccc1N1C(=O)Nc2c(C(=O)N[C@H]3CC[C@@H](NC(=O)CN(C)C)C3)sc3nccc1c23 (single isomer, unassigned) [Example 102]", 7.50],
  ["C=CC(=O)N[C@@H]1CCC[C@H](NC(=O)c2sc3nccc4c3c2NC(=O)N4c2ccc(Oc3ccccc3)cc2C)C1 (single isomer, unassigned) [Example 176]", 7.78],
  ["O=C(N[C@@H]1CCC[C@H]1O)c1sc2nccc3c2c1NC(=O)N3c1cccc(-c2ccccc2)c1 [Example 144]", 6.69],
  ["Cc1cc(Oc2ccccc2)ccc1N1C(=O)Nc2c(C(=O)N[C@H]3CCC[C@@H]3O)sc3nccc1c23 [Example 20]", 7.02]
]}

Origin of measurements: patent US10934310B2
